Where do the numbers come from? From ChEMBL document CHEMBL4665640.

# Test protocol: Cmax in cynomolgus monkey at 3 mg/kg, po by LC-MS/MS analysis
# Assay type: ADME, organism-based, Macaca fascicularis
# Set-up: route oral, dose 3 mg/kg
# Measurement conditions: in vivo
Reported metric: Cmax (ng/mL)
Answers are plain numbers, in ng/mL.

{"Smiles structure": "Cc1ccc(Oc2ccc3nc(COc4cccc(C(=O)O)c4)n(C)c3c2F)c(C)n1", "Cmax (ng/mL)": 28800}

Could you share which Cmax value was measured for `COc1cc(Oc2ccc3nc(COc4cccc(C(=O)O)c4)n(C)c3n2)cc(C)n1` ?
500

###

# Test protocol: Microsomal stability in human liver microsomes assessed as parent compound remaining after 30 mins
# Assay type: ADME, Microsome
# Measurement conditions: read-out: Stabilty
Reported metric: remaining at 0.5 h (%)
One number for each entry, in %.

Dear colleague, could you send me remaining at 0.5 h for each of the items below? Thanks.
1. COc1cc(Oc2ccc3nc(COc4cccc(C(=O)O)c4)n(C)c3c2)cc(C)n1
2. COc1cc(Oc2cc(C)c3nc(COc4cccc(C(=O)O)c4)n(C)c3c2)ccn1
3. CCOc1cc(Oc2ncc(C)cc2C)cc2c1nc(COc1cccc(C(=O)O)c1)n2C

96
100
100

Dear colleague, could you send me remaining at 0.5 h for each of the items below? Thanks.
1. CCc1cc(Oc2ccc3nc(COc4cccc(C(=O)O)c4)n(C)c3c2)ccn1
2. COc1cc(Oc2ccc3nc(COc4cccc(C(=O)O)c4)n(C)c3c2)ccn1
3. Cc1ncccc1Oc1ccc2nc(COc3cccc(C(=O)O)c3)n(C)c2c1
4. Cc1ccc(Oc2cc(C)c3nc(COc4cccc(C(=O)O)c4)n(C)c3c2)c(C)n1
5. Cc1ccc(Oc2cc(OC(C)C)c3nc(COc4cccc(C(=O)O)c4)n(C)c3c2)c(C)n1

1. 88
2. 98
3. 98
4. 100
5. 91

Could you share which remaining at 0.5 h value was measured for `Cc1cnc(Oc2cc(OC(C)C)c3nc(COc4cccc(C(=O)O)c4)n(C)c3c2)c(C)c1` ?
96
